Target: wildtype AR (Homo sapiens, UniProt P10275)
Construct: The AR WT construct expresses full-length human AR under cmv promoter control; expressed in transfected cells; host or cells: COS7
Sequence (P10275 1-920): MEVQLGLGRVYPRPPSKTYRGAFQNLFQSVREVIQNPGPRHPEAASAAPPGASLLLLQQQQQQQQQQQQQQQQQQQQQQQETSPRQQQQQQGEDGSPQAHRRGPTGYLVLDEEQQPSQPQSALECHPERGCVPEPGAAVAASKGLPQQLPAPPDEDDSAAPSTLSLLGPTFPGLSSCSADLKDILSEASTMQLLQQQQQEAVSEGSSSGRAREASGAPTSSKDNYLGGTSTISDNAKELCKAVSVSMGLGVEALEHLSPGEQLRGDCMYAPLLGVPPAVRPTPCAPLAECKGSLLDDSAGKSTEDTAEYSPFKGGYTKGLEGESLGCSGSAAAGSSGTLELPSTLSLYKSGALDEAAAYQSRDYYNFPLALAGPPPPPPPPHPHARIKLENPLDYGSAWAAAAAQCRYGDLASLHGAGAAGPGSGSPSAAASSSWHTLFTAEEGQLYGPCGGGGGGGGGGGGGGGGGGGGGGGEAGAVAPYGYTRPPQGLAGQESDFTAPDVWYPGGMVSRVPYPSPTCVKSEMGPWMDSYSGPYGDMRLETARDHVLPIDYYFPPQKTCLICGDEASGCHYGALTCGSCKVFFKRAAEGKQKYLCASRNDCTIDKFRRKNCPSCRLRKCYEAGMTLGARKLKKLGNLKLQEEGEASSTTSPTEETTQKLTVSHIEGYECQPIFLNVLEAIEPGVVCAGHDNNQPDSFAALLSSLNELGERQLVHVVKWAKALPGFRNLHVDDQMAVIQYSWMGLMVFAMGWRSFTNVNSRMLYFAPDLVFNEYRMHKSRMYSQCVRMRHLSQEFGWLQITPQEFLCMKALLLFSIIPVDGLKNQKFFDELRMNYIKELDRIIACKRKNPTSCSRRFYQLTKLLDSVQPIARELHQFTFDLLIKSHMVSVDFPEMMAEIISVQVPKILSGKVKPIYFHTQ
Assay: AR-responsive firefly luciferase reporter assay in COS7 cells transfected with AR (DHT-stimulated AR activity)
Assay type: cell-based
Details: COS-7, 24 h, read-out: % Angtag (12.5 μM vs. 1 nM DHT)
assay.endpoint: inhibition at 12.5 µM (%)

In [3]: df
Out[3]:
                                 mol_smiles         assay_endpoint  reading
0  O=S(=O)(NCc1ccc2c(c1)OCO2)c1ccc(C(F)(F)F)c(N=C=S)c1  inhibition at 12.5 µM       75
1  O=C(CCl)Nc1ccc(S(=O)(=O)NCc2ccc3c(c2)OCO3)cc1  inhibition at 12.5 µM       90
2  NC(=O)c1cc(S(=O)(=O)NCc2ccc3c(c2)OCO3)ccc1OC(F)(F)F  inhibition at 12.5 µM       20
3  O=C(CBr)Nc1ccc(S(=O)(=O)NCc2ccc3c(c2)OCO3)cc1  inhibition at 12.5 µM       70
4  CC(=O)c1ccc(S(=O)(=O)NCc2ccc3c(c2)OCO3)cc1C(F)(F)F  inhibition at 12.5 µM       50
5  CC(C)(C)CC(=O)Nc1ccc(S(=O)(=O)NCc2ccc3c(c2)OCO3)cc1  inhibition at 12.5 µM       70
6  CS(=O)(=O)c1cc(S(=O)(=O)NCc2ccc3c(c2)OCO3)ccc1OC(F)(F)F  inhibition at 12.5 µM       85
7  CCC(=O)c1ccc(S(=O)(=O)NCc2ccc3c(c2)OCO3)cc1C(F)(F)F  inhibition at 12.5 µM       20
8  O=C(CBr)Nc1cccc(S(=O)(=O)NCc2ccc3c(c2)OCO3)c1  inhibition at 12.5 µM       20

====

target: wildtype AR (Homo sapiens, UniProt P10275); construct: The AR WT construct expresses full-length human AR under cmv promoter control; expressed in transfected cells; host or cells: COS7; assay: AR-responsive firefly luciferase reporter assay in COS7 cells transfected with AR (DHT-stimulated AR activity); format: cell-based; details: COS-7, 24 h, read-out: % Angtag (12.5 μM vs. 1 nM DHT)
assay.endpoint: inhibition at 12.5 µM (%)

>>> print(df.to_string())
                                   compound         assay_endpoint  reading
0  CC(=O)c1ccc(S(=O)(=O)NCc2ccc3c(c2)OCO3)cc1OC(F)(F)F [Compound 25]  inhibition at 12.5 µM       50
1  CS(=O)(=O)Nc1ccc(S(=O)(=O)NCc2ccc3c(c2)OCO3)cc1 [Compound 21]  inhibition at 12.5 µM       70
2  CCC(=O)c1cc(S(=O)(=O)NCc2ccc3c(c2)OCO3)ccc1OC(F)(F)F [Compound 29]  inhibition at 12.5 µM       60
3  O=C(Nc1ccc(S(=O)(=O)NCc2ccc3c(c2)OCO3)cc1)C(F)(F)F [Compound 20]  inhibition at 12.5 µM        0
